Each item that follows carries a reported IC50.
Test system: A2780
Protocol Notes: Cytotoxicity against human A2780 cells assessed as inhibition of cell proliferation incubated for 72 hrs by MTT assay
Type: functional, cell-based
Study Conditions: A2780, 72 h, read-out: IC50

>  <Query Smiles>
C/C(=N\NC(=S)Nc1ccc(C)cc1)c1ccccn1

>  <Target Of Assay>
A2780

>  <IC50>
0.017 µM

$$$$
>  <Query Smiles>
Cc1ccc(NC(=S)N/N=C/c2ccccc2O)cc1

>  <Target Of Assay>
A2780

>  <IC50>
5.15 µM

$$$$
>  <Query Smiles>
COc1ccc(NC(=S)N/N=C(\C)c2ccccc2N)cc1

>  <Target Of Assay>
A2780

>  <IC50>
4.35 µM

$$$$
